- tested_target: BRG1 (Homo sapiens)
- Sequence (P51532 1448-1575): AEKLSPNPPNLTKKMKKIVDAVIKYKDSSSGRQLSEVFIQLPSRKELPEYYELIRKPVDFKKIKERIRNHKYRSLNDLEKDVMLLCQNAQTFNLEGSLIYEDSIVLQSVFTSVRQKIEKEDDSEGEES
- assay_notes: biochemical
- Format: binding
- conditions_used: BRG1 HTRF IC50 (µM)
Structures can show the parent of a compound that is named as a salt.
endpoint_name: IC50 (µM)

# compound, unit_abbreviation, readout_number
rows = [
    ("Nc1nnc(-c2ccccc2O)cc1OCCc1ccccc1", "µM", 0.0148),
    ("Nc1nnc(-c2ccccc2O)cc1N1CCNC(=O)C1", "µM", 0.316),
    ("Nc1nnc(-c2ccccc2O)cc1N1CCN(Cc2ccncc2)CC1", "µM", 0.0796),
    ("Nc1nnc(-c2ccccc2O)cc1C1CCCC1", "µM", 0.0239),
    ("Nc1nnc(-c2ccccc2O)cc1OC1CCc2ccccc21 (stereo not shown)", "µM", 0.606),
    ("C[C@@H](Oc1cc(-c2ccccc2O)nnc1N)c1cccnc1", "µM", 0.132),
    ("Nc1nnc(-c2ccccc2O)cc1C1CCN(S(=O)(=O)c2ccccc2)C1 (stereo not shown)", "µM", 0.412),
    ("CC(C(=O)N(C)C)n1cc(-c2cc(-c3ccccc3O)nnc2N)cn1 (stereo not shown)", "µM", 0.0247),
    ("Nc1nnc(-c2ccccc2O)cc1C1CCNC1 (stereo not shown) [Example 215, hydrochloride]", "µM", 0.743),
    ("CC1CN(c2cc(-c3ccccc3O)nnc2N)CCN1C(=O)c1cccnc1 (stereo not shown)", "µM", 0.0446),
    ("Nc1nnc(-c2ccccc2O)cc1N1CC2CCC(C1)N2c1ccc(C(=O)O)nc1", "µM", 0.218),
    ("Nc1nnc(-c2ccccc2O)cc1N1CCN(S(=O)(=O)c2ccccc2)CC1", "µM", 0.0612),
    ("CC(=O)N1CCC(c2cc(-c3ccccc3O)nnc2N)CC1", "µM", 0.0848),
    ("CN1CCCN(c2cc(-c3ccccc3O)nnc2N)CC1", "µM", 0.296),
    ("C[C@H]1CN(c2cc(-c3ccccc3O)nnc2N)CCN1C(=O)c1cccnc1", "µM", 0.166),
    ("Cn1cc(N2CCN(c3cc(-c4ccccc4O)nnc3N)CC2)cn1", "µM", 0.0367),
    ("CC(C)(O)C(=O)N1C2CCC1CN(c1cc(-c3ccccc3O)nnc1N)C2", "µM", 0.0444),
    ("CC(COc1cc(-c2ccccc2O)nnc1N)c1ccccc1 (stereo not shown)", "µM", 0.0122),
    ("Nc1nnc(-c2ccccc2O)cc1N1CCC2(CC1)C(=O)Nc1ccccc12", "µM", 0.0758),
]

These entries and their values trace back to patent EP3262036B1.
